List of koff values.
Target under test: T1, recombinant human Tau-412 protein (human, UniProt P10636-7 1-412)
T1 construct: Analyte of the SPR study; also called human tau (1N4R, 412 amino acids)
T1 sequence (P10636 other isoform, or with tags, fused parts or gaps limits assumed): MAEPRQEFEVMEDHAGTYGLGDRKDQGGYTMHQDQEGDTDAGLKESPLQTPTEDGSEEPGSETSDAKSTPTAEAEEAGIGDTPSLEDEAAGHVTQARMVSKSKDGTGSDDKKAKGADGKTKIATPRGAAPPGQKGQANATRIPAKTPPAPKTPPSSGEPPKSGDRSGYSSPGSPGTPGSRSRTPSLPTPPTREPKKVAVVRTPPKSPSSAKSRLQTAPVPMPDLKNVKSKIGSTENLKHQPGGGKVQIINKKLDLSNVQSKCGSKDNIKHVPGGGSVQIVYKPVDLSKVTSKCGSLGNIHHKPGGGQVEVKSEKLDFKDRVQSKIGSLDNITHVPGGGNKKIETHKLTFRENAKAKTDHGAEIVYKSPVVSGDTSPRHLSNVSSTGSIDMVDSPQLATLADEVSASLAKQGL
Protocol notes: SPR Biacore T200, mAb captured on Protein A, Tau-412 analyte, 1-to-1 model, chip A11/1
# unit: s⁻¹ | format: bare number

INSERT INTO results (binder, units_of_measure, measured) VALUES
  ('VH1/VK2 humanized anti-tau antibody (C2N-8E12) (antibody, human IgG4 S228P, kappa, V domains shown, Humanized recombinant IgG4 with S241P hinge mutation, human kappa light chain; also called C2N-8EI2) VH: EVKVVESGGGLVQPGGSMKLSCVVSGFTFSNYWVNWVRQAPGKGLEWVAQIRLKSDNYATHYEESVKGRFTISRDDSKSSVYLQMNNLRAEDSGIYYCTNWEDYWGQGTTVTVSS VL: DIVLTQSPDSLAVSLGERATISCRASQSVSTSRYSYIHWYQQKPGQPPKLLIKYASNLESGVPSRFSGSGSGTDFTLNIHPLEPEDFATYYCHHSWEIPLTFGQGTKLEIKR', 's⁻¹', 0.000611),
  ('VH2/VK2 humanized anti-tau antibody (antibody, human IgG4 S228P, kappa, V domains shown, Humanized variant of HJ8.5) VH: EVKVVESGGGLVQPGGSLKLSCVVSGFTFSNYWVNWVRQAPGKGLEWVAQIRLKSDNYATHYEESVKGRFTISRDDSKSSVYLQMNSLRAEDTGIYYCTNWEDYWGQGTTVTVSS VL: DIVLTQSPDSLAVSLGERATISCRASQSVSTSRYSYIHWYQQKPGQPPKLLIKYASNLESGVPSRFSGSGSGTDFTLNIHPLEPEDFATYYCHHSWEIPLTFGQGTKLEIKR', 's⁻¹', 0.000628),
  ('chimeric HJ8.5 monoclonal antibody (antibody, V domains shown, also called chimera; chimeric antibody) VH: EVKVEESGGGLVQPGGSMKLSCVVSGFTFSNYWVNWVRQSPEKGLEWVAQIRLKSDNYATHYEESVKGRFTISRDDSKSSVYLQMNNLRAEDSGIYYCTNWEDYWGQGTTLTVSS VL: DIVLTQSPASLAVSLGQRATISCRASQSVSTSRYSYIHWYQQKPGQPPKLLIKYASNLESGVPARFSGSGSGTDFTLNIHPLEEEDAATYYCHHSWEIPLTFGAGTKLELK', 's⁻¹', 0.0016);

For reference, reported koff for VH3/VK2 humanized anti-tau antibody (antibody, human IgG4 S228P, kappa, V domains shown, Humanized variant of HJ8.5) VH: EVQVVESGGGLVQPGGSLKLSCVVSGFTFSNYWVNWVRQAPGKGLEWVAQIRLKSDNYATHYEESVKGRFTISRDDSKNSVYLQMNSLRAEDTAIYYCTNWEDYWGQGTTVTVSS VL: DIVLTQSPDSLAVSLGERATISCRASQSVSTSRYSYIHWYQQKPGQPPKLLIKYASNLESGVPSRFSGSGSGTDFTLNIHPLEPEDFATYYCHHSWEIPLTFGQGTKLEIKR stands at 0.000546

Data provenance is patent US20180371066A1.
